For each record, write down the corresponding pIC50.
target: autotaxin (ATX) (Homo sapiens, UniProt Q13822); construct: conditioned medium from the human melanoma cell line, MDA-MB-4355, which endogenously expresses autotaxin; serum-free conditioned medium, concentrated 20-fold; test: Native Autotaxin Choline Release Assay; conditions: autotaxin in conditioned medium from human melanoma cell line; choline released from LPC; read-out: MDA-MB-435S Assay IC50
pIC50: −log10 of the molar value.

Fill in: autotaxin (ATX) (Homo sapiens, UniProt Q13822) pIC50 for CCn1cc(-n2c(C)c(Sc3cccc(C(=O)O)c3)c3ccc(S(C)(=O)=O)cc32)cn1 = < 6.00

Item Cc1[nH]c2ccc(Cl)cc2c1Sc1cccc(CC(=O)O)c1 was tested on autotaxin (ATX) (Homo sapiens, UniProt Q13822); the reported pIC50 is < 6.00

Kindly note: autotaxin (ATX) (Homo sapiens, UniProt Q13822), CCc1c(Sc2cccc(C(=O)O)c2)c2ccc(Cl)cc2n1Cc1ccccc1 , pIC50 value reported: < 6.00

Record Cc1c(Sc2cccc(CC(=O)O)c2)c2ccccc2n1Cc1ccccc1 has autotaxin (ATX) (Homo sapiens, UniProt Q13822) pIC50 equal to < 6.00

Case CCCn1cc(-n2c(C)c(Sc3cccc(CC(=O)NS(=O)(=O)c4ccccc4)c3)c3ccc(Cl)cc32)cn1 , autotaxin (ATX) (Homo sapiens, UniProt Q13822), pIC50 recorded as > 6.52

Item: CCn1cc(-n2c(C)c(Sc3cccc(C(=O)NS(=O)(=O)c4ccccc4)c3F)c3ccc(Cl)c(F)c32)cn1 | System: autotaxin (ATX) (Homo sapiens, UniProt Q13822) | pIC50: > 6.52

Field pIC50 (system: autotaxin (ATX) (Homo sapiens, UniProt Q13822)) for entry CCCn1cc(-n2c(C)c(Sc3cccc(CC(=O)NS(=O)(=O)C4CC4)c3)c3ccc(Cl)cc32)cn1 = > 6.52

Value (pIC50, autotaxin (ATX) (Homo sapiens, UniProt Q13822)) for record CCn1cc(-n2c(C)c(Sc3cccc(C(=O)O)c3C)c3ccc(Cl)cc32)cn1 = > 6.52
